Test system: SEM cells
Test: cell viability relative to DMSO control; higher = less cytotoxic
Conditions: RPMI 5 mM glucose + 10% dialyzed FBS; 48 h; 0.19 µM
parameter: cell viability (%)
Supply the numeric figure in %, leaving out any unit text.

Study these solved cases before continuing.
[[record]]
record_smiles = "CC(C)N(C[C@H]1O[C@@H](n2cnc3c(N)ncnc32)[C@H](O)[C@@H]1O)[C@H]1C[C@@H](CCc2nc3cc(C(C)(C)C)ccc3[nH]2)C1"
measured_number = 103

[[record]]
record_smiles = "O=C1\\C=C/C=C2/[C@H]3CNC[C@H](C3)CN12"
measured_number = 123

[[record]]
record_smiles = "COc1cc(CCc2cc(NC(=O)c3ccc(N4C[C@@H](C)N[C@@H](C)C4)cc3)n[nH]2)cc(OC)c1"
measured_number = 52.1

[[record]]
record_smiles = "[O-]C(=O)C/1=N/C(=O)NC(=O)N1"
measured_number = 34.7

[[record]]
record_smiles = "COc1cc([C@@H](CC(=O)O)c2ccc(C)c(CN3C[C@@H](C)Oc4ccccc4[S+]3(=O)[O-])c2)cc2nnn(C)c12"
measured_number = 78.5


Task: Determine its reported cell viability: COc1cc2ncn(-c3cc(OCc4ccccc4[S+](C)(=O)[O-])c(C#N)s3)c2cc1OC
Output: 110

Task: Supply recorded cell viability for CO[C@@]12[C@H](COC(N)=O)C/3=C(N1C[C@@H]4N[C@H]24)/C(=O)/C(=C(N)\C3=O)C here.
Output: 112

Task: Give a short answer stating reported cell viability for Cc1cc(OCCC[S+](C)(=O)[O-])cc(C)c1-c1cccc(COc2ccc3c(c2)OC[C@H]3CC(=O)O)c1 .
Output: 108

Task: Hello, please tell me recorded cell viability for this one: CC[S+](=O)([O-])Nc1ccc2c(c1)/C(=C(/Nc1ccc(CN3CCCCC3)cc1)c1ccccc1)C(=O)N2
Output: 18.5

Task: Kindly indicate its recorded cell viability. Item: N#C/C(=C\c1ccc(O)c(O)c1)C(=O)NCc1ccccc1
Output: 102

Task: Provide one value: measured cell viability of C[C@@H]1CCN(C(=O)CC#N)C[C@@H]1N(C)c1ncnc2[nH]ccc12
Output: 92.4

Task: // fetch cell viability given entry CC(=O)OC[C@H]1O[C@@H]([S-])[C@H](OC(C)=O)[C@@H](OC(C)=O)[C@@H]1OC(C)=O.CCP(CC)CC.[Au+]
Output: 87.2

----------
System: P12-Ichikawa
Test: cell viability relative to DMSO control; higher = less cytotoxic
Conditions: RPMI 5 mM glucose + 10% dialyzed FBS; 48 h; 1.71 µM
Label 1 when cell viability is strictly below 80%; at or above that, label 0.

Task: Consider the compound CN(C)C1=CC(=CC=C1)C\2=C\3C(=O)N(NC3=C/C(=O)N2C)C4=CC=CC=C4Cl . Is its cell viability strictly less than 80%?
Output: 1

----------
System: NOMO1
Test: cell viability relative to DMSO control; higher = less cytotoxic
Settings: RPMI 5 mM glucose + 10% dialyzed FBS; 48 h; 0.0211 µM
The molecules listed here are annotated with their cell viability.
Supply the numeric figure in %, leaving out any unit text.

Guide cases for cell viability, answers given:
[[record]]
molecule = "NC[C@@H]1O[C@H](O[C@H]2[C@@H](O)[C@H](O[C@@H]3[C@@H](O)[C@H](N)C[C@H](N)[C@H]3O[C@H]3O[C@H](CN)[C@@H](O)[C@H](O)[C@H]3N)O[C@@H]2CO)[C@H](N)[C@@H](O)[C@@H]1O.O=S(=O)(O)O.O=S(=O)(O)O.O=S(=O)(O)O"
measured_number = 96.1

[[record]]
molecule = "CCC(C)N1\\N=C/N(C1=O)C2=CC=C(C=C2)N3CCN(CC3)C4=CC=C(OC[C@H]5CO[C@@](C[N]6C=NC=N6)(O5)C7=CC=C(Cl)C=C7Cl)C=C4 (stereo partly drawn)"
measured_number = 124


Lab note: next molecule to report on.
Task: Give a short answer stating reported cell viability for NC(=O)Nc1sc(-c2ccc(F)cc2)cc1C(N)=O .
Output: 100
